molecular target: EGF receptor tyrosine kinase (Homo sapiens, UniProt P00533); construct: Receptor tyrosine kinase was obtained in partially purified form from A431 cells; endogenous in cells; host or cells: A431 cells (human vulval carcinoma); Triton X-100-solubilised membrane fraction; test: In vitro inhibition of the enzyme EGF receptor tyrosine kinase (test (a)); assay type: biochemical; settings: approximate value, enzyme partially purified from A431 cells, with EGF, 25° C., 10 minutes
Sequence (P00533 25-1210): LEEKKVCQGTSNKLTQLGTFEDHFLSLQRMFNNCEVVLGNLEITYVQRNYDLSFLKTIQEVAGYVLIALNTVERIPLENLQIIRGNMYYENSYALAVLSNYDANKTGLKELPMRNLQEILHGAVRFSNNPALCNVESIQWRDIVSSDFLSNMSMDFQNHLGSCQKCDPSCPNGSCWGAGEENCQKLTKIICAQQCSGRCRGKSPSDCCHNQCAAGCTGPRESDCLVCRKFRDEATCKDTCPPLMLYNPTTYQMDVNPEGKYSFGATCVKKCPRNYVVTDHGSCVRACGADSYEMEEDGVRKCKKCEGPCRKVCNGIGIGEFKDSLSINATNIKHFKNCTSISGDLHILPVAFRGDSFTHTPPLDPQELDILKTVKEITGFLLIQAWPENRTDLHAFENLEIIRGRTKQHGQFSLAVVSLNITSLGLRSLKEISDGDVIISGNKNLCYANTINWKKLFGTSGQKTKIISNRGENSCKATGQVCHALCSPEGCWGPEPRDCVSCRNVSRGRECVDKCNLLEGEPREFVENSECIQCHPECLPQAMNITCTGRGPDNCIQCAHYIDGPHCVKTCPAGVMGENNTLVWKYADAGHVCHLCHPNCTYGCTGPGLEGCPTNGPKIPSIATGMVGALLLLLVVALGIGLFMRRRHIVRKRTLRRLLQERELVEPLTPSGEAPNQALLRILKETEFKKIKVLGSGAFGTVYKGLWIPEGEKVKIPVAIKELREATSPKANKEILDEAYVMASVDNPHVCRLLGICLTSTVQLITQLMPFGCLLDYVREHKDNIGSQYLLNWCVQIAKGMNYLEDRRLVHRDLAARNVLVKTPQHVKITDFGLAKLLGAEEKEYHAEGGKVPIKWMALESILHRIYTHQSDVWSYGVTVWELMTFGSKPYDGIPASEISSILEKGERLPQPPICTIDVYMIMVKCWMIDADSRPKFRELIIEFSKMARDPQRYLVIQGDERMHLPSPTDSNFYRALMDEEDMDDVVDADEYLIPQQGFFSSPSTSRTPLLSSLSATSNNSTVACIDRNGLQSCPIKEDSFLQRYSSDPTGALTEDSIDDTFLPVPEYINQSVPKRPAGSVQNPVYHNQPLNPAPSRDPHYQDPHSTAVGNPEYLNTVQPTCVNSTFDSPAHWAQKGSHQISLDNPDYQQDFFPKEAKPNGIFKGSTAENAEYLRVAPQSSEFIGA
assay-readout: IC50

>  <mol>
COCCNc1cc2c(Nc3cccc(C)c3)ncnc2cc1OC

>  <data-value>
~0.01 µM

$$$$
